Could you please report measured N number, binding to SmBRD3(2), Repeat 3 for the items listed next?
target: UniProt:A0A5K4ESD7; assay: biochemical; assay type: binding; settings: ITC stoichiometry; Repeat 3
Numbers only.

Here is how some compounds turned out for N number, binding to SmBRD3(2), Repeat 3.
CC(=O)N1c2ccc(-c3ccc(C(=O)O)cc3)cc2[C@H](Nc2ccc3[nH]ccc3c2)C[C@@H]1C    1.60
CC(=O)N1c2ccc(-c3ccc(C(=O)O)cc3)cc2[C@H](Nc2ccc3ccsc3c2)C[C@@H]1C    1.64
CC(=O)N1c2ccc(-c3ccc(C(=O)O)cc3)cc2[C@H](Nc2ccc3ncccc3c2)C[C@@H]1C    1.69

Next item in the queue.
Q: Answer briefly: N number, binding to SmBRD3(2), Repeat 3 recorded on UniProt:A0A5K4ESD7 for CC(=O)N1c2ccc(-c3ccc(C(=O)O)cc3)cc2[C@H](Nc2ccc3ncsc3c2)C[C@@H]1C
Result: 1.49

---

biological target: SmBRD3(2) (Schistosoma mansoni); assay: biochemical; format: binding; conditions: ITC stoichiometry; Repeat 1
recorded.endpoint: N number, binding to SmBRD3(2), Repeat 1
One number for each entry.

CC(=O)N1c2ccc(-c3ccc(C(=O)O)cc3)cc2[C@H](Nc2ccc3ccsc3c2)C[C@@H]1C    1.52

Fill in N number, binding to SmBRD3(2), Repeat 1 for each of the 6 compounds listed.
1. CC(=O)N1c2ccc(-c3ccc(C(=O)O)cc3)cc2[C@H](Nc2ccc3ccoc3c2)C[C@@H]1C
2. CC(=O)N1c2ccc(-c3ccc(C(=O)O)cc3)cc2[C@H](Nc2ccc3ncsc3c2)C[C@@H]1C
3. CC(=O)N1c2ccc(-c3ccc(C(=O)O)cc3)cc2[C@H](Nc2ccc3[nH]ccc3c2)C[C@@H]1C
4. CC(=O)N1c2ccc(-c3ccc(C(=O)O)cc3)cc2[C@H](Nc2ccc3ncccc3c2)C[C@@H]1C
5. CC(=O)N1c2ccc(-c3ccc(C(=O)O)cc3)cc2[C@H](Nc2ccc3sccc3c2)C[C@@H]1C
6. CC(=O)N1c2ccc(-c3ccc(C(=O)O)cc3)cc2[C@H](Nc2ccc(Cl)cc2)C[C@@H]1C [I-BET726 (8), I-BET726, reference compound]

Result:
1. 1.54
2. 1.42
3. 1.52
4. 1.48
5. 1.51
6. 1.12

---

target: UniProt:A0A5K4ESD7; assay: biochemical; format: binding; conditions: read-out: SmBRD3(2) Kd
Please respond with reported Kd for every item in the list.
Give bare numbers, in nM.

CC(=O)N1c2ccc(-c3ccc(C(=O)O)cc3)cc2[C@H](Nc2ccc3ccoc3c2)C[C@@H]1C    1180
CC(=O)N1c2ccc(-c3ccc(C(=O)O)cc3)cc2[C@H](Nc2ccc3[nH]ccc3c2)C[C@@H]1C    651
CC(=O)N1c2ccc(-c3ccc(C(=O)O)cc3)cc2[C@H](Nc2ccc3sccc3c2)C[C@@H]1C    553
CC(=O)N1c2ccc(-c3ccc(C(=O)O)cc3)cc2[C@H](Nc2ccc3ccsc3c2)C[C@@H]1C    701

Here are 2 molecules. What values of Kd were reported for them?
1. CC(=O)N1c2ccc(-c3ccc(C(=O)O)cc3)cc2[C@H](Nc2ccc3ncsc3c2)C[C@@H]1C
2. CC(=O)N1c2ccc(-c3ccc(C(=O)O)cc3)cc2[C@H](Nc2ccc3ncccc3c2)C[C@@H]1C

Result:
[1180, 364]

---

target: SmBRD3(2) (Schistosoma mansoni, UniProt A0A5K4ESD7); test: biochemical; format: binding; settings: read-out: SmBRD3(2) Kd, Repeat 1
recorded.endpoint: pKd
One number for each entry, as −log10 of the molar value.

Here's what some known entries look like.
CC(=O)N1c2ccc(-c3ccc(C(=O)O)cc3)cc2[C@H](Nc2ccc3ccoc3c2)C[C@@H]1C    5.97
CC(=O)N1c2ccc(-c3ccc(C(=O)O)cc3)cc2[C@H](Nc2ccc3ncccc3c2)C[C@@H]1C    6.49
CC(=O)N1c2ccc(-c3ccc(C(=O)O)cc3)cc2[C@H](Nc2ccc3sccc3c2)C[C@@H]1C    6.25

# input for lookup
Q: // fetch pKd given entry CC(=O)N1c2ccc(-c3ccc(C(=O)O)cc3)cc2[C@H](Nc2ccc3[nH]ccc3c2)C[C@@H]1C
Result: 6.20

---

target: SmBRD3(2) (Schistosoma mansoni); test: biochemical; type: binding; details: ITC; single run ± error of curve fit; Repeat 3; read-out: SmBRD3(2) Kd, Repeat 3
recorded.endpoint: pKd
One number for each entry, as −log10 of the molar value.

# count of solved cases: 2
CC(=O)N1c2ccc(-c3ccc(C(=O)O)cc3)cc2[C@H](Nc2ccc3ncsc3c2)C[C@@H]1C    5.90
CC(=O)N1c2ccc(-c3ccc(C(=O)O)cc3)cc2[C@H](Nc2ccc3ncccc3c2)C[C@@H]1C    6.39

Value sought for every listed compound: pKd.
1. CC(=O)N1c2ccc(-c3ccc(C(=O)O)cc3)cc2[C@H](Nc2ccc3ccsc3c2)C[C@@H]1C
2. CC(=O)N1c2ccc(-c3ccc(C(=O)O)cc3)cc2[C@H](Nc2ccc3[nH]ccc3c2)C[C@@H]1C

Result:
[6.12, 6.17]

---

target: SmBRD3(2) (Schistosoma mansoni, UniProt A0A5K4ESD7); assay: biochemical; assay type: binding; conditions: ITC stoichiometry; mean of repeats
Please provide measured N number, binding to SmBRD3(2), Mean for the entries that follow.
Answers are plain numbers.

A selection of reference data follows.
CC(=O)N1c2ccc(-c3ccc(C(=O)O)cc3)cc2[C@H](Nc2ccc3sccc3c2)C[C@@H]1C    1.53
CC(=O)N1c2ccc(-c3ccc(C(=O)O)cc3)cc2[C@H](Nc2ccc3[nH]ccc3c2)C[C@@H]1C    1.61
CC(=O)N1c2ccc(-c3ccc(C(=O)O)cc3)cc2[C@H](Nc2ccc3ccsc3c2)C[C@@H]1C    1.58

// input: 4 compounds below; output: N number, binding to SmBRD3(2), Mean for each
1. CC(=O)N1c2ccc(-c3ccc(C(=O)O)cc3)cc2[C@H](Nc2ccc3ccoc3c2)C[C@@H]1C
2. CC(=O)N1c2ccc(-c3ccc(C(=O)O)cc3)cc2[C@H](Nc2ccc3ncccc3c2)C[C@@H]1C
3. CC(=O)N1c2ccc(-c3ccc(C(=O)O)cc3)cc2[C@H](Nc2ccc(Cl)cc2)C[C@@H]1C [I-BET726 (8), I-BET726, reference compound]
4. CC(=O)N1c2ccc(-c3ccc(C(=O)O)cc3)cc2[C@H](Nc2ccc3ncsc3c2)C[C@@H]1C

Result:
1.52
1.56
1.12
1.48

---

Give measured pKd for each item. Keep answers brief.
biological target: SmBRD3(1,2) (Schistosoma mansoni); assay: biochemical; format: binding; conditions: SmBRD3(1,2) pKd, ITC
Sequence (A0A5K4ESD7 entry or part of it): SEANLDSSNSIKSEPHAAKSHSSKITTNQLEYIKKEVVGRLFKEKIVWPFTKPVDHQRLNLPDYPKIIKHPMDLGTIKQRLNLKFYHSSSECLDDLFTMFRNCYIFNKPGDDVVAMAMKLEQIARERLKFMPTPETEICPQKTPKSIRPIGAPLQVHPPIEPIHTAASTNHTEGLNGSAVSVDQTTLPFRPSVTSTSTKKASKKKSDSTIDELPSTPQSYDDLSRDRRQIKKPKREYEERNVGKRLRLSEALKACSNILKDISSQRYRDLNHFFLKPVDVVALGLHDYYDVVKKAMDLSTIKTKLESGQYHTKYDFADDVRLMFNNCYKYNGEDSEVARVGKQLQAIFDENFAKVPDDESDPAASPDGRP
Give bare numbers, as −log10 of the molar value.

Some solved cases for reference:
Cc1noc(C)c1-c1cc(O)cc(C(O)c2ccc(F)cc2)c1 (centres unmarked) [Compound 3, OXFBD02-F, reference compound]    5.80
CC(=O)Oc1cc(-c2c(C)noc2C)cc(C(O)c2ccccc2)c1 (centres unmarked) [OXFBD03 (2), OXFBD03, reference compound]    6.20
Cc1noc(C)c1-c1cc(O)cc(C(O)c2cccnc2)c1 (centres unmarked) [OXFBD04 (4), OXFBD04, reference compound]    5.50
Cc1noc(C)c1-c1cc(O)cc(C(O)c2ccccc2)c1 (centres unmarked) [OXFBD02 (1), OXFBD02, reference compound]    6.20

Next up:
Q: Return reported pKd for target or system SmBRD3(1,2) (Schistosoma mansoni), item CC(=O)N1c2ccc(-c3ccc(C(=O)O)cc3)cc2[C@H](Nc2ccc(Cl)cc2)C[C@@H]1C [I-BET726 (8), I-BET726, reference compound] .
Result: 5.80

---

experiment: CAD solubility assay; format: physicochemical; conditions: phosphate buffered saline, pH 7.4, phosphate buffered saline at pH 7.4; read-out: Aqueous Solubility by CAD
recorded.endpoint: solubility at 1 h (µM)
Give bare numbers, in µM.

Dear reader, for each entry below, please note its solubility at 1 h.
1. CCOC(=O)c1ccc(-c2ccc3c(c2)[C@H](Nc2ccc4ncccc4c2)C[C@H](C)N3C(C)=O)cc1
2. CCOC(=O)c1ccc(-c2ccc3c(c2)[C@@H](Nc2ccc4ccsc4c2)C[C@@H](C)N3C(C)=O)cc1

Result:
1: 13; 2: 1

---

molecular target: UniProtKB A0A5K4ESD7; assay: biochemical; type: binding; conditions: SmBRD3(2) Kd, ITC; single value ± error of the curve fit or mean of 2-3 repeats ± s.e.m.
recorded.endpoint: Kd
Put your answer as a value accompanied by its unit after it.

Q: Return value of Kd for input CC(=O)N1c2ccc(-c3ccc(C(=O)O)cc3)cc2[C@H](Nc2ccc(Cl)cc2)C[C@@H]1C [I-BET726 (8), I-BET726, reference compound] , no commentary.
Result: 1.85 µM

---

Assign pKd to each entry below.
target: SmBRD3(1,2) (Schistosoma mansoni); test: biochemical; format: binding; details: SmBRD3(1,2) Kd, ITC; n = 1 ± error of the curve fit
Numbers only, as −log10 of the molar value.

Reference set (4 entries):
Cc1noc(C)c1-c1cc(O)cc(C(O)c2ccc(F)cc2)c1 (centres unmarked) [Compound 3, OXFBD02-F, reference compound]    5.76
Cc1noc(C)c1-c1cc(O)cc(C(O)c2cccnc2)c1 (centres unmarked) [OXFBD04 (4), OXFBD04, reference compound]    5.53
CC(=O)Oc1cc(-c2c(C)noc2C)cc(C(O)c2ccccc2)c1 (centres unmarked) [OXFBD03 (2), OXFBD03, reference compound]    6.17
CC(=O)N1c2ccc(-c3ccc(C(=O)O)cc3)cc2[C@H](Nc2ccc(Cl)cc2)C[C@@H]1C [I-BET726 (8), I-BET726, reference compound]    5.82

Now consider the entry below.
Q: Please indicate pKd recorded for Cc1noc(C)c1-c1cc(O)cc(C(O)c2ccccc2)c1 (centres unmarked) [OXFBD02 (1), OXFBD02, reference compound]
Result: 6.17
